Origin of measurements: ChEMBL document CHEMBL3885881

species on record: Rattus norvegicus; test: DrugMatrix - Regimen: Daily Repeat; type: toxicity, organism-based, Sprague-Dawley; design: regimen Daily Repeat, gender Male, age 6-8 weeks; conditions: in vivo, po, 0 mg/kg, 120 h, tissue Plasma, route oral GAVAGE, dose level Control, time 5 day, vehicle .5 % CMC
Readout kind: TOTAL BILIRUBIN

- Molecule: "O=C1C(CC[S+]([O-])c2ccccc2)C(=O)N(c2ccccc2)N1c1ccccc1 (stereo not given) [SULFINPYRAZONE]"
  TOTAL BILIRUBIN: "0.2 mg/dL"

// batch mode: one TOTAL BILIRUBIN value per listed entry
1. Cn1c(=O)c2c(ncn2CC(O)CO)n(C)c1=O (stereo not given) [DYPHYLLINE]
2. COC1=C(OC)C(=O)C(CCCCCCCCCCO)=C(C)C1=O [IDEBENONE]
3. CN(C)[C@@H]1C(O)=C(C(N)=O)C(=O)[C@@]2(O)C(O)=C3C(=O)c4c(O)ccc(Cl)c4[C@@](C)(O)[C@H]3C[C@@H]12 [CHLORTETRACYCLINE]
4. COc1cc2nc(N3CCN(C(=O)c4ccco4)CC3)nc(N)c2cc1OC [PRAZOSIN]
5. O=C1CN=C(c2ccccc2Cl)c2cc([N+](=O)[O-])ccc2N1 [CLONAZEPAM]
6. CN/C(=N/CCSCc1nc[nH]c1C)NC#N [CIMETIDINE]
7. CCN(CC)CCOc1ccc(/C(=C(/Cl)c2ccccc2)c2ccccc2)cc1 [ENCLOMIPHENE]
8. NCCCC(O)(P(=O)(O)O)P(=O)(O)O [ALENDRONIC ACID]

Result:
1: 0.18 mg/dL; 2: 0.2 mg/dL; 3: 0.18 mg/dL; 4: 0.2 mg/dL; 5: 0.2 mg/dL; 6: 0.2 mg/dL; 7: 0.2 mg/dL; 8: 0.68 mg/dL

Ask: GET /values?readout=TOTAL BILIRUBIN&item= O=C1Nc2ccc(Cl)cc2C(c2ccccc2Cl)=NC1O (stereo not given) [LORAZEPAM]
Result: 0.2 mg/dL

---

species: Rattus norvegicus; experiment: DrugMatrix - Regimen: Daily Repeat; type: toxicity, organism-based, Sprague-Dawley; design: regimen Daily Repeat, gender Male, age 6-8 weeks; conditions: in vivo, sc, 0 mg/kg, 72 h, tissue Plasma, route subcutaneous, dose level Control, time 3 day, […]
Exercise: state measured CREATINE PHOSPHOKINASE for each of the molecules provided.
One number for each entry, in u/L.

- Molecule: "CC(C)(C)CC(C)(C)c1ccc(OCCOCC[N+](C)(C)Cc2ccccc2)cc1.[Cl-] [BENZETHONIUM CHLORIDE]"
  CREATINE PHOSPHOKINASE (u/L): 651.83
- Molecule: "CCN(CC)CCOCCC1=CCC2CC1C2(C)C (stereo not given)"
  CREATINE PHOSPHOKINASE (u/L): 438.67
- Molecule: "Oc1c(Cl)cc(Cl)c(Cl)c1Cc1c(O)c(Cl)cc(Cl)c1Cl"
  CREATINE PHOSPHOKINASE (u/L): 651.83
- Molecule: "O=C(Nc1ccc(Br)cc1)c1cc(Br)cc(Br)c1O"
  CREATINE PHOSPHOKINASE (u/L): 515.17

Attention now shifts to the item below.
Ask: Endpoint output: CREATINE PHOSPHOKINASE of CCC(=O)O[C@]1(C(=O)CCl)[C@@H](C)C[C@H]2[C@@H]3CCC4=CC(=O)C=C[C@]4(C)[C@@]3(F)[C@@H](O)C[C@@]21C [CLOBETASOL PROPIONATE] . Value?
Result: 515.17
